Recorded pIC50 values for a group of molecules are listed next.
# study.target: Human DP1 receptor (Homo sapiens (Human))
# Sequence (Q13258 whole entry): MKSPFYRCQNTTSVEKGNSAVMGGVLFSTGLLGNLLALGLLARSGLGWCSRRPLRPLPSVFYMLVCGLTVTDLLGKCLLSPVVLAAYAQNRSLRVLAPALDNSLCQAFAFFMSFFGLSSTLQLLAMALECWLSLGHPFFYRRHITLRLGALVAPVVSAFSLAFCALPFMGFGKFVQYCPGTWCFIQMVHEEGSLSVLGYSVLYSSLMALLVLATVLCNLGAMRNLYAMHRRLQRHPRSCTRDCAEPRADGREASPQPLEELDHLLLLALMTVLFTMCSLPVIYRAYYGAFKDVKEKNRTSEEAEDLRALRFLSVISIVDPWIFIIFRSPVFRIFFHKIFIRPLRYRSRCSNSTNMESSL
# assay.notes: Human DP1 inhibitory activity in DP1-expressing cell (PGD2-induced cAMP)
# Format: cell-based
# test.context: category of cAMP IC50, human DP1 receptor expressing Jurkut cell
pIC50: −log10 of the molar value.

molecule=CCOc1ccc(S(=O)(=O)N2C[C@@H](C)[C@@H](n3nc(CC(=O)O)c4ccccc43)C2)c(CF)c1 study_target="Human DP1 receptor (Homo sapiens (Human))" readout=pIC50 result="> 7.00"
molecule=C[C@@H]1CN(S(=O)(=O)C2CCCCC2)C[C@@H]1n1nc(CC(=O)O)c2ccccc21 study_target="Human DP1 receptor (Homo sapiens (Human))" readout=pIC50 result="5.30 to 7.00"
molecule="CCOc1ccc(S(=O)(=O)N2C[C@@H](C)[C@@H](n3nc(C(C)C(=O)O)c4ccccc43)C2)cc1 (stereo partly shown)" study_target="Human DP1 receptor (Homo sapiens (Human))" readout=pIC50 result="> 7.00"

Provide measured pIC50 value, entry: CNC(=O)[C@@H]1C[C@@H](n2nc(CC(=O)O)c3ccc(F)cc32)CN1S(=O)(=O)c1ccc(OC(C)C)cc1
5.30 to 7.00

Provide measured pIC50 value, entry: C[C@@H]1CN(S(=O)(=O)c2ccc(OC(F)(F)F)cc2)C[C@@H]1n1nc(CC(=O)O)c2ccc(Cl)cc21
> 7.00

Provide measured pIC50 value, entry: CCOc1ccc(S(=O)(=O)N2C[C@@H](C)[C@@H](n3nc(CC(=O)O)c4ccc(N5CCOCC5)cc43)C2)cc1
5.30 to 7.00

Provide measured pIC50 value, entry: CC(C)OCCOc1ccc(S(=O)(=O)N2C[C@@H](C)[C@@H](n3nc(CC(=O)O)c4ccccc43)C2)cc1
5.30 to 7.00

====

# study.target: DP receptor (Homo sapiens (Human), UniProt Q13258)
# assay.notes: DP inhibitory activity in human platelets (PGD2-induced cAMP increase in platelet rich plasma, HTRF)
# test.context: IC50 of PGD2 (300 nM)-induced cAMP increase, read-out: PRP
readout: IC50 (µM)

The cases that follow already have their IC50 on record.
molecular_string=CCOc1ccc(S(=O)(=O)N2C[C@H](n3nc(CC(=O)O)c4ccccc43)C[C@@H]2C#N)cc1 readout=IC50 readout_number=0.012
molecular_string=CCOc1ccc(S(=O)(=O)N2C[C@@H](C)[C@@H](n3nc(CC(=O)O)c4ccc(N5CCCC5)cc43)C2)cn1 readout=IC50 readout_number=0.14
molecular_string=CCOc1ccc(S(=O)(=O)N2C[C@@H](C)[C@@H](n3nc(CC(=O)O)c4ccccc43)C2)c(F)c1 readout=IC50 readout_number=0.068
molecular_string=CCOc1ccc(S(=O)(=O)N2C[C@@H](C)[C@@H](n3nc(CC(=O)O)c4ccccc43)C2)c(N)c1 readout=IC50 readout_number=0.21
molecular_string=CCOc1ncc(S(=O)(=O)N2C[C@@H](C)[C@@H](n3nc(CC(=O)O)c4ccc(F)cc43)C2)s1 readout=IC50 readout_number=0.055

[I] CCOc1ccc(S(=O)(=O)N2C[C@@H](C)[C@@H](n3nc(CC(=O)O)c4ccccc43)C2)cn1
[II] CC(C)Oc1ccc(S(=O)(=O)N2C[C@@H](C)[C@H](n3nc(CC(=O)O)c4cc(Br)c(F)cc43)C2)cc1
Higher IC50: I or II ? Write down the label of the entry you select.
II
